These entries and their values trace back to PubChem BioAssay.

molecular target: NADPH oxidase 2 (Homo sapiens) (UniProt P04839); assay: compounds shifting NOX2 Amplex Red fluorescence – cell-based, HEK293-NOX2, PMA-stimulated, NOX inhibitor project, primary screen (AID 1159); settings: 45 min, higher = more signal, called active from +8 up or from −8 down; also: test concentration not given here
Sequence (P04839 whole entry, looked up): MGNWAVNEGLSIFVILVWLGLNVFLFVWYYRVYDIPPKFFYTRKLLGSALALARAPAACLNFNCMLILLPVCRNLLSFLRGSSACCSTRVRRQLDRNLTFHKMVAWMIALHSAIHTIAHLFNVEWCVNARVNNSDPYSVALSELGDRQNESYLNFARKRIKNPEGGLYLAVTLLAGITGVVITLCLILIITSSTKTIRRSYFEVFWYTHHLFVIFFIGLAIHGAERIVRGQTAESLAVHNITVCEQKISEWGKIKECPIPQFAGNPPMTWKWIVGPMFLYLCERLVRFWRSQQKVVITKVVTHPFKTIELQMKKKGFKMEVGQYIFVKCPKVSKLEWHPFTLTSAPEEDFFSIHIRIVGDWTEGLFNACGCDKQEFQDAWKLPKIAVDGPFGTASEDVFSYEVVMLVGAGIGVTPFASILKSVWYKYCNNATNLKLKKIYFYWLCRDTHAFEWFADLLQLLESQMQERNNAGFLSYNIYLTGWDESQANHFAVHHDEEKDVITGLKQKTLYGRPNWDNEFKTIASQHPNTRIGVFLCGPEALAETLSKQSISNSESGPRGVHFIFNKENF
Each entry gets F if its z-score stays under -0.05, and T if its z-score is -0.05 or above.

Is reported z-score greater than or equal to -0.05 here: CCOC(=O)C=Cc1cccc(OC)c1O
F

Check if z-score >= -0.05 (inclusive). Item: COCCOC(=O)N1C(=O)[C@@]2(c3cc(C#CCC(C(=O)OC)C(=O)OC)ccc31)[C@H](c1ccccc1OCCO)N1[C@H](c3ccccc3)[C@H](c3ccccc3)OC(=O)[C@H]1[C@@H]2C(=O)Nc1nc2ccccc2s1
T

Record Oc1ccc2cc[n+](Cc3cccc(OC(F)(F)F)c3)cc2c1 ; criterion: z-score no lower than -0.05. Met?
F

Is it the case that CC(C)N1C(=O)c2ccccc2[C@](C)(C(=O)NCCCN(C)C)[C@@H]1c1ccc(CO)cc1 has z-score reaching or exceeding -0.05?
T

# check: z-score of Cc1ccc(N2C(=O)c3ccccc3[C@](C)(C(=O)NCCN3CCOCC3)[C@@H]2c2ccc(CO)cc2)nc1 is greater than or equal to -0.05
T

I'd appreciate it if you could say whether C[N+](C)(C)CCCCNC(=O)[C@H]1C[C@H]2C(=O)N3CCC[C@H]3C(=O)N2[C@H]1c1ccc(O)cc1 has z-score at least equal to -0.05.
F

Given CCCCCN1CC=CC23O[C@@H]4C=CCCOC(=O)C4[C@H]2C(=O)N(CCCO)[C@@H]3C1=O (stereo not given in full) , state whether its z-score is at least -0.05.
F

Kindly determine if z-score recorded for COC(=O)[C@@]1(Cc2ccc(F)cc2)[C@H]2c3cc(C(=O)N(C)C)n(CCc4c[nH]c5ccc(OC)cc45)c3C[C@H]2CN1C(=O)c1ccccc1 is above or exactly -0.05.
F

Record C=C(/C(=C/C[C@@H](OC(=O)c1ccncc1)c1ccc(CO)o1)c1cc(C(=O)OC)ccc1OC)C(C)C ; criterion: z-score no lower than -0.05. Met?
F

Tell me whether z-score is at least -0.05 here: O=C(NCC(F)(F)F)[C@@H]1c2ccccc2C(=O)N(Cc2ccccc2)[C@H]1c1ccc(CO)cc1
F

Would you say CCCC[C@@H]1C[C@H]1[C@@H](NC(=O)c1ccccc1)c1ccccc1 shows z-score at minimum -0.05?
F

Kindly determine if z-score recorded for CCCC[C@@H]1C[C@H]1[C@@H](NC(=O)c1ccccc1)c1ccc(-c2ccccc2)cc1 is above or exactly -0.05.
F

Confirm if z-score reported for the compound CN(C)CCCCNC(=O)[C@@H]1C[C@@H]2C(=O)N[C@@H](CCCCN)C(=O)N2[C@@H]1c1cccc(OCCO)c1 is -0.05 or above.
T

// inclusive: z-score at least -0.05? input: C=C(C(=O)CC[C@H](OC(=O)c1cccnc1)c1ccccc1OCCO)C(C)C
F

Please tell me: is the compound NC(=O)NCC#Cc1ccc2c(c1)[C@]1(C(=O)N2)[C@H](C(=O)NC[C@H](O)c2ccccc2)[C@H]2C(=O)O[C@H](c3ccccc3)[C@H](c3ccccc3)N2[C@@H]1c1ccccc1OCCO at or over -0.05 in terms of z-score?
T
